# measurement.notes: protein stability index of a GFP-peptide fusion (yeast GPS) (PSI 1-4); higher = more stable; sorted into four equal gates, so the index is relative within each strain
# conditions: pdr5∆
# protein stability index per entry

SAYEASMVYSNVGELIE [RRP4] = 2.22

Could you share which protein stability index value was measured for ISAKDMGQGLCNNINKG [BRR2] ? 3.25

And then ELIIDPLFKKALVDFDE [BRN1] , what is it? 2.98

Moving on to the next sequence: ILTPESQLKKTKAQQKT [RPL7B] 2.89

---

# measurement.notes: protein stability index of a GFP-peptide fusion (yeast GPS) (PSI 1-4); higher = more stable; sorted into four equal gates, so the index is relative within each strain
# conditions: ubr1∆
Give met when the value for protein stability index is at least 3. Give not met when it is less.

SKLKLKNLLRKNLSIDE [ECM29] = not met
AHLWQKIHESIVFDICQ [PRP8] = not met
NLLCYYNLRSLNLINAK [RPN3] = not met
KVLKSGSGVDSSKLQLT [RRP42] = met
RKQIDETQVLVSTPEKW [BRR2] = not met
MILNYNPSQGVSNSGAQ [UBP6] = met
NVKVIMATNRADTLDPA [RPT3] = not met
VDRLKIGGSLARIALRH [RPS25A] = not met

Identify whether the reported protein stability index of the following sequence is 3 or greater: LAKYRDAGKIDKHLYHV [RPL19A] met

What do you get for HVINVGKTWEKLVLAAR [RPS0A] ? met

Try this sequence next: MAFRKSNVYLSLVNSYI [COB] not met

Now try IDLDHKRFLILQGEVEN [SMC4] . not met

What would you report for EVVEAVTVVDTPPVVVV [RPL3] ? not met

Try this sequence next: KAIFQFVCRGMAATQTI [ECM29] not met

ANHDDQDDIDEMVENSS [SRP68] , same question. met

Try the sequence EEHHEEEPSRVDPEQEA [RPT4] met

Entry IAPRRKRLADGLSVTQK [DIS3] please met

Try the sequence NLQGDLQAIQEKLNKTD [ITC1] met

---

# measurement.notes: protein stability index of a GFP-peptide fusion (yeast GPS) (PSI 1-4); higher = more stable; sorted into four equal gates, so the index is relative within each strain
# conditions: san1∆
I would appreciate it if you labelled entries Satisfied when protein stability index is 3 or higher, otherwise Not satisfied.

KVDSPDDPFMTKSGATT [GAL11] = Not satisfied

Say whether NRVGLTLDNIDDINKAK [ARP9] shows protein stability index of 3 or more. Satisfied

Same read-out for GLEVGPVVQVGIFIKIL [IRR1] ? Not satisfied

Then YTLTEEGVEYLREYLNL [RPS10A] ? Satisfied

And for ILDKIFYGVLDQGNGWL [RPN6] ? Not satisfied

What about this sequence? LISLIMTTWRKLYTKEL [YMR129W/POM152] Not satisfied

Do the same for IYDFITLFSSIEPQVIN [ECM29] please Not satisfied

Now this one: IRSVALNDSNVKSFKPH [RRP42] Not satisfied

---

Quick list: protein stability index per entry.
# measurement.notes: protein stability index of a GFP-peptide fusion (yeast GPS) (PSI 1-4); higher = more stable; sorted into four equal gates, so the index is relative within each strain
# conditions: pdr5∆
Lab note: record the figure alone, no unit after it.

KQVLDVDPVYKDVAKPT [FAS2] = 2.99

Would you mind telling me what protein stability index value was observed for DIFVYLTYDKDLTNNPQ [MTR3] ? 1.98

Follow-up item: LETILEEFRNLAALNVW [SSN2] 2.98

Moving on to the next sequence: VLTGGYLDQHKRTRLES [SMC3] 2.04

Input NQKTSAVAALTEVRAED [RPL8A] 2.94

Subsequent entry: RKRHQRALKVRNAQAQR [RPS6A] 2.96

Please answer likewise for SNDRVNPLIELTPIQKK [ITC1] 1.99

Next up: FLKKLRNEQVTIELKNG [SMD1] 2.24

Follow-up entry: EMDEKSYEKNEDHVEDH [LIN1] 3.35
